Target: PDE9A1 (181–506) (Homo sapiens, UniProt O76083)
Sequence (O76083 241-566): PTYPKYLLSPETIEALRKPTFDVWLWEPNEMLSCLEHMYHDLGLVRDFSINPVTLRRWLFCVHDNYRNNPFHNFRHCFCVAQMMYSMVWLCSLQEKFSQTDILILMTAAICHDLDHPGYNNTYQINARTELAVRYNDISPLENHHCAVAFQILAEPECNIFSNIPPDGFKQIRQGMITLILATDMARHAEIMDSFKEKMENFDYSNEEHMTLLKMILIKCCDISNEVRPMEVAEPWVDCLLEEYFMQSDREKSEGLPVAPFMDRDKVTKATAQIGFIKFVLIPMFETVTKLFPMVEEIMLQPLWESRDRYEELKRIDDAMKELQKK
Measurement Name: IC50 (µM)

compound="CC(C)CC(=O)c1ccc(OC(F)F)c(O[C@H]2CCOC2)c1 [(S)-Zl-n-91]" study_target="PDE9A1 (181–506) (Homo sapiens, UniProt O76083)" endpoint_unit=µM numeric_result=84

* * *

Experiment: Pharmacokinetic properties in mice
Format: in vivo
Conditions: male, ICR, mouse, plasma, po, 5 mg/kg
Measurement Name: Vd/F

compound="CC(C)CC(=O)c1ccc(OC(F)F)c(OC2CCOC2)c1 (stereo not shown)" measurement_name=Vd/F result="39.9 L/kg"

* * *

Test: Pharmacokinetic properties in mice
Assay type: in vivo
Conditions: male, ICR, mouse, plasma, po, 5 mg/kg
Measurement Name: Cmax (ng/mL)

compound="CC(C)CC(=O)c1ccc(OC(F)F)c(OC2CCOC2)c1 (stereo not shown)" numeric_result=96.5

* * *

Biological target: PDE3A1 (665–1141) (Homo sapiens)
Sequence (Q14432 665-1141): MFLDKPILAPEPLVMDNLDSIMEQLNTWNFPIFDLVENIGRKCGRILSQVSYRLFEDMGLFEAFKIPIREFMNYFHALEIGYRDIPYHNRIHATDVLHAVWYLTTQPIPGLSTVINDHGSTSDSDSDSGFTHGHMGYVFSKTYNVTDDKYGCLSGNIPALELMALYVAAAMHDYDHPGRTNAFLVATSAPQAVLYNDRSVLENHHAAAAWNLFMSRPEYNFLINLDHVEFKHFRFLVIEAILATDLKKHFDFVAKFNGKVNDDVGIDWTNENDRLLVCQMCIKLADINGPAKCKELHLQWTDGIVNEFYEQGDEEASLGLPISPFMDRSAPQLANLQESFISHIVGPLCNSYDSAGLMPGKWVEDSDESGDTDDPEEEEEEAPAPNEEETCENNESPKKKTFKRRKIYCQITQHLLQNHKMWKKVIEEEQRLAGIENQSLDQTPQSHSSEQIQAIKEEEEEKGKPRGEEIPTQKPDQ
Measurement Name: IC50 (µM)

compound="CC(C)CC(=O)c1ccc(OC(F)F)c(O[C@H]2CCOC2)c1 [(S)-Zl-n-91]" numeric_result=46

* * *

Molecular target: PDE10A2 (448–789) (Homo sapiens, UniProt Q9Y233)
Sequence (Q9Y233 714-1055): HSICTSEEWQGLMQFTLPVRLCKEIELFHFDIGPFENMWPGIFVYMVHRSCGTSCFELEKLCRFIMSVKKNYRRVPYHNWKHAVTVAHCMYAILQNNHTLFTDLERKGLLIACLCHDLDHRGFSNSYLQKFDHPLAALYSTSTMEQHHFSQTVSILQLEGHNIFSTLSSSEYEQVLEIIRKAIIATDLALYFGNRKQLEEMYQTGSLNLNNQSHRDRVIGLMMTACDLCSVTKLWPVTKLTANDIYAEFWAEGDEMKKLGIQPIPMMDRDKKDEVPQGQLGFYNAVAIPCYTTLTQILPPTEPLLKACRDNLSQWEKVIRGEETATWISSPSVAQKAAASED
pIC50: −log10 of the molar value.
Measurement Name: pIC50

compound="CC(C)CC(=O)c1ccc(OC(F)F)c(O[C@H]2CCOC2)c1 [(S)-Zl-n-91]" measurement_name=pIC50 numeric_result=4.80

* * *

Assay: Pharmacokinetic properties in mice
Format: in vivo
Conditions: male, ICR, mouse, plasma, iv, 5 mg/kg
Measurement Name: MRT inf

molecule="CC(C)CC(=O)c1ccc(OC(F)F)c(OC2CCOC2)c1 (stereo not shown)" result="20.4 min"

* * *

Experiment: Pharmacokinetic properties in mice
Format: in vivo
Conditions: male, ICR, mouse, plasma, po, 5 mg/kg
Measurement Name: AUC (ng·h/mL)

compound="CC(C)CC(=O)c1ccc(OC(F)F)c(OC2CCOC2)c1 (stereo not shown)" numeric_result=244

* * *

Target: PDE4B2B (Homo sapiens)
Sequence (Q07343 324-700): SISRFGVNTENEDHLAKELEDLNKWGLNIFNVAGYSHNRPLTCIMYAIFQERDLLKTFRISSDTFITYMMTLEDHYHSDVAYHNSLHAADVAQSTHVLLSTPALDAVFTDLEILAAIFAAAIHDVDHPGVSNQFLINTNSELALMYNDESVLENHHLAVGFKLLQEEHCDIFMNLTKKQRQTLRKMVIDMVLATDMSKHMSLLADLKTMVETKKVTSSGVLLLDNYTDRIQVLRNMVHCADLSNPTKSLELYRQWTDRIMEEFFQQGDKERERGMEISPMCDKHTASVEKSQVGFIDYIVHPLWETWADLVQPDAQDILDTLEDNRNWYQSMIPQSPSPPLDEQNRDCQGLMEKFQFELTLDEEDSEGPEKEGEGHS
Measurement Name: IC50 (nM)

molecule="CC(C)CC(=O)c1ccc(OC(F)F)c(O[C@H]2CCOC2)c1 [(S)-Zl-n-91]" study_target="PDE4B2B (Homo sapiens)" measurement_name=IC50 numeric_result=20

* * *

Experiment: Pharmacokinetic properties in mice
Assay type: in vivo
Settings: male, ICR, mouse, plasma, iv, 5 mg/kg
Measurement Name: half-life (min)

compound="CC(C)CC(=O)c1ccc(OC(F)F)c(OC2CCOC2)c1 (stereo not shown) [Zl-n-91]" numeric_result=37.2

* * *

Experiment: Pharmacokinetic properties in mice
Type: in vivo
Conditions: male, ICR, mouse, plasma, iv, 5 mg/kg
Measurement Name: AUC (ng·h/mL)

compound="CC(C)CC(=O)c1ccc(OC(F)F)c(OC2CCOC2)c1 (stereo not shown)" measurement_name=AUC endpoint_unit=ng·h/mL numeric_result=728

* * *

Assay: Pharmacokinetic properties in mice
Type: in vivo
Conditions: male, ICR, mouse, plasma, iv, 5 mg/kg
Measurement Name: clearance

compound="CC(C)CC(=O)c1ccc(OC(F)F)c(OC2CCOC2)c1 (stereo not shown)" result="115 mL/min/kg"

* * *

Assay: Pharmacokinetic properties in mice
Type: in vivo
Conditions: male, ICR, mouse, plasma, po, 5 mg/kg
Measurement Name: AUC(0-t)

compound="CC(C)CC(=O)c1ccc(OC(F)F)c(OC2CCOC2)c1 (stereo not shown)" measurement_name=AUC(0-t) result="241 ng·h/mL"
